Tested on: SKBR3 cells express WT PI3Ka
test: In vitro cell proliferation, SKBR3 cells (CellTiter-Glo)
Assay type: cell-based
condition.info: Homo sapiens, SK-BR-3, 72 h, inhibition of proliferation
pEC50: −log10 of the molar value.
Below, each entry is listed with its recorded pEC50.

Worked examples follow.
Cc1cc(C(C)Nc2ccccc2C(=O)O)c2cc(N3C4CCCC3CC4)n(C)c(=O)c2c1 (centres unmarked)    < 4.82
Cc1cc([C@@H](C)Nc2ccccc2C(=O)O)c2cc(N3CCn4c(C)nnc4C3)n(C)c(=O)c2c1    < 4.82
CCc1ncccc1N1CCN(c2cc3c([C@@H](C)Nc4ccccc4C(=O)O)cc(C)cc3c(=O)n2C)CC1    4.82 to 5.70
Cc1cc([C@@H](C)Nc2ccccc2C(=O)O)c2cc(N3CCN(c4ncn(C)n4)CC3)n(C)c(=O)c2c1    < 4.82

Noted pEC50 for Cc1cc([C@@H](C)Nc2ccccc2C(=O)O)c2cc(N3CCN(Cc4ccnc(C)n4)CC3)n(C)c(=O)c2c1 , tested on SKBR3 cells express WT PI3Ka: < 4.82

Noted pEC50 for Cc1cnc(N2CCN(c3cc4c([C@@H](C)Nc5cccc(F)c5C(=O)O)cc(F)cc4c(=O)n3C)CC2)s1 , tested on SKBR3 cells express WT PI3Ka: < 4.82

Noted pEC50 for C[C@@H](Nc1ccccc1C(=O)O)c1cc(F)cc2c(=O)n(C)c(-c3cnc(Oc4cnn(C(F)F)c4)c(F)c3)cc12 , tested on SKBR3 cells express WT PI3Ka: < 4.82

Noted pEC50 for Cc1cc([C@@H](C)Nc2ccccc2C(=O)O)c2cc(N3CC4(CN(CC(F)(F)F)C4)C3)n(C)c(=O)c2c1 , tested on SKBR3 cells express WT PI3Ka: < 4.82

Noted pEC50 for Cc1cc([C@@H](C)Nc2ccccc2C(=O)O)c2c(F)c(N3CCN(CC(F)(F)F)CC3)n(C)c(=O)c2c1 , tested on SKBR3 cells express WT PI3Ka: 4.82 to 5.70

Noted pEC50 for C[C@@H](Nc1ccccc1C(=O)O)c1cc(F)cc2c(=O)n(C)c(C3C[C@@H]3CF)cc12 (single isomer, unassigned) , tested on SKBR3 cells express WT PI3Ka: < 4.82
